The measured values listed here are drawn from patent US20200399712A1.

Tested on: HPV-16
assay.text: qPCR sensitivity against HPV-HNSCC tumor samples diluted among 10 ng normal human DNA
test.parameters: tumor DNA dilution, fraction of 32 samples

[
  {
    "molecule": "BR E1-6: HPV-16 E1 region primer/probe set, SEQ ID NO: 43-45 (nucleic acid, chemistry not given here) DNA 1: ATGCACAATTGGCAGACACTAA DNA 2: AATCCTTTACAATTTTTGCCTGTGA DNA 3: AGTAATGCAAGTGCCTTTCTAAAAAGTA",
    "Sensitivity, 3 cells": 0.344
  },
  {
    "molecule": "HR E5L2-4: primer/probe set for junction between E5 and L2, SEQ ID NO: 55-57 (same as SEQ ID NO: 4-6) (nucleic acid, chemistry not given here) DNA 1: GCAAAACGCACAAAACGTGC DNA 2: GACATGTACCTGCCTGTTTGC DNA 3: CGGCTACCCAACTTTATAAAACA",
    "Sensitivity, 3 cells": 0.313
  }
]
